Source of measurements: PubChem BioAssay

assay: reversal of MRP1-mediated doxorubicin resistance, pilot screen, H69AR cells, doxorubicin co-treatment (AID 601); conditions: H69AR cells + 2 uM doxorubicin, CellTiter-Glo, 72 h; measured here: viability with 2 uM doxorubicin; at 10 µM; stronger effect = lower value
Recorded viability for the following compounds
Output spec: scalar in %, unitless text.

O=C(Nc1ccccc1-c1ccccc1)NC1CCN(C(=O)N2CCOCC2)CC1 = 99.5
Cc1ccc(S(=O)(=O)N2CCCC2C(=O)OCc2ccco2)cc1 (stereo unspecified) = 76.8

Problem: Need viability, item COc1ccc(-c2nc(N)nc(C)c2Oc2ccccc2Br)c(O)c1
Solution: 17.8

Problem: Same question for O=C(Nc1nnc(C2CCCCC2)s1)c1cccs1 please.
Solution: 82.9

###

assay: 384-well plate pilot, post-Golgi transport modulator project, inhibition of yeast transport mutant growth (AID 636); conditions: absorbance 615 nm, about 18 h
Calls of active or inactive are those of the source. Cut-off read from the data, not from the text of the source: active = inhibition above about 31%; inactive = the rest.
Mark one answer only. Choices: YES for active, NO for inactive

Problem: Please indicate how the test categorized CC(=O)NCc1cccc(CNC(C)=O)n1 .
Solution: NO

Problem: Same question for Fc1cccc2sc(Nc3nnc(-c4ccco4)o3)nc12 please.
Solution: NO

Problem: Same question for CC(C)c1ccc(-c2nc(N3CCOCC3)[nH]c(=O)c2C#N)cc1 please.
Solution: NO

Problem: Same question for COc1ccccc1N1CCN(C/C(O)=C(\C#N)c2nc(-c3ccccc3)cs2)CC1 please.
Solution: NO

Problem: Same question for O=C(CC(CC(=O)c1ccccc1)C(=O)O)c1ccccc1 please.
Solution: NO

###

Recorded inhibition for the following compounds
assay: 384-well plate pilot, post-Golgi transport modulator project, inhibition of yeast transport mutant growth (AID 636); conditions: absorbance 615 nm, about 18 h, stronger effect = higher value
Output spec: scalar in %, unitless text.

CN(C)/C=C1\N=C(c2ccc(Cl)cc2Cl)OC1=O = -3.29
OC(CN1CCCCC1)Cn1c(C(F)(F)F)nc2ccccc21 (stereo unspecified) = 0
CCOc1ccc(CNc2ccc3c(c2)ncn3C)cc1 = -3.73
COc1cccc(NC(=O)N2CCCC2C(=O)Nc2ccc3c(c2)OCO3)c1 (stereo unspecified) = -5.33
Oc1ccc(N2CCN(C(c3cccnc3)c3nnnn3Cc3ccccc3)CC2)cc1 (stereo unspecified) = -4.74

Problem: Need inhibition, item CCOC(=O)CN1C2=NCCN2c2ccccc21
Solution: -2.63

Problem: Same question for CCOC(=O)c1c(C)oc2ccc(NS(=O)(=O)c3ccc4c5c(cccc35)C(=O)N4)cc12 please.
Solution: -7.53

Problem: Same question for COc1ccc(N2CCN(C(=O)CSc3nnc(Cn4nnc5ccccc54)n3C)CC2)cc1 please.
Solution: -1.97

Problem: Same question for COC(=O)c1[nH]c2ccc(C)cc2c1NC(=O)CN1CCN(C(=O)c2ccccc2)CC1 please.
Solution: -4.67

Problem: Same question for Cc1cc(O)c(-c2cc(C(=O)Nc3ccc(S(=O)(=O)N4CCOCC4)cc3)[nH]n2)cc1C please.
Solution: -5.14

Problem: Same question for CC(=O)c1c(C)[nH]c(C(=O)NCc2cccs2)c1C please.
Solution: 0.39

###

test: reversal of MRP1-mediated doxorubicin resistance, pilot screen, H69AR cells, doxorubicin co-treatment (AID 601); conditions: H69AR cells, CellTiter-Glo, 72 h; compound alone cytotoxicity; at 10 µM
Lab note - cut at 90% for viability: yes (1) if strictly below, no (0) if not.

Here are 4 compounds together with their reported answers.
O=C1C2ON(c3ccc(Cl)cc3)C(c3ccco3)C2C(=O)N1c1ccccc1 (configuration not stated) = no (0)
Cc1ccc2c(c1)NC(=O)C(CC(=O)NCCCN1CCN(c3cc(Cl)ccc3C)CC1)O2 (configuration not stated) = yes (1)
COc1ccc(N2C(=O)C3C4C=CC(C4)C3C2=O)nn1 (configuration not stated) = no (0)
CC(C)OC(=O)CSc1nnc(-c2ccc(O)cc2)n1Cc1ccccc1 = yes (1)

Problem: Dear reviewer, please state whether COc1ccc(S(=O)(=O)Nc2cccc(C)n2)c2ccccc12 has viability strictly beneath 90%.
Solution: no (0)

Problem: Same question for CC1=C(C(=O)Nc2ccccc2C)C(c2ccc(C)o2)N2C(=O)CSC2=N1 (configuration not stated) please.
Solution: no (0)

Problem: Same question for COC(=O)c1cn(-c2ccccc2)nc1C(=O)OC please.
Solution: no (0)

Problem: Same question for CCc1nnc(NC(=O)CSc2nc(-c3ccc(OC)cc3)ns2)s1 please.
Solution: no (0)

Problem: Same question for COc1cc(CN2CCSCC2)cc(OC)c1OC please.
Solution: no (0)

###

experiment: reversal of MRP1-mediated doxorubicin resistance, pilot screen, H69AR cells, doxorubicin co-treatment (AID 601); details: H69AR cells, CellTiter-Glo, 72 h; compound alone cytotoxicity; at 10 µM
Metric: viability (%)
Output spec: scalar in %, unitless text.

Example entries and their recorded answers appear below.
CCC(=O)OC1(C#CCOc2ccc(OC)cc2)CCN(C)CC1 = 105
Cc1cc(C(=O)Nc2sc3c(c2C#N)CCCCC3)cs1 = 77.1
O=C(Cn1c(=O)oc2ccccc21)Nc1ccc(S(=O)(=O)N2CCCCC2)cc1 = 65.1

Problem: Need viability, item COCC(=O)Nc1sc2c(c1C(=O)OC)CCC(C)C2 (centres undefined)
Solution: 94.8

Problem: Same question for COCCN(CCOC)C(=O)CCn1c(=O)oc2ccccc21 please.
Solution: 89

Problem: Same question for CCOC(=O)c1cnc2c(OC)cccc2c1N1CCN(c2ccc(OC)cc2)CC1 please.
Solution: 79.6

Problem: Same question for CCC(=O)Oc1ccc(C/C(=N\O)c2ccc(O)cc2O)o1 please.
Solution: 52.5

Problem: Same question for CCCn1nc(CC(=O)O)c2ccccc2c1=O please.
Solution: 103

Problem: Same question for Cc1ccc(C(C(=O)NC2CCCCC2)N(C(=O)c2csnn2)C2CCCC2)o1 (centres undefined) please.
Solution: 80.4

Problem: Same question for O=C(NCc1ccccc1)c1cc(-c2ccco2)on1 please.
Solution: 94

Problem: Same question for Cc1ccc(-c2nn(-c3ccccc3)cc2/C=C(\C#N)c2cccc(C#N)c2)o1 please.
Solution: 71.6

Problem: Same question for CC(=O)Nc1ccc(N2CCN(Cc3ccccc3F)CC2)cc1 please.
Solution: 92.5

Problem: Same question for Cn1c(=O)c(=O)n(C)c2cc(S(=O)(=O)Nc3ccc4c(c3)OCCO4)ccc21 please.
Solution: 94.9

Problem: Same question for Cn1c(=O)n(CCC(=O)O)c2ccccc21 please.
Solution: 97.2

Problem: Same question for CCc1cc2c(NCCC(=O)O)nc(C)nc2s1 please.
Solution: 75.5

Problem: Same question for O=C(NCCC1=CCCCC1)C1CCN(S(=O)(=O)c2cnc[nH]2)CC1 please.
Solution: 104

Problem: Same question for Nc1ccc(S(=O)(=O)c2cccc(N)c2)cc1 please.
Solution: 96.2

Problem: Same question for COc1ccc(-c2ccc(-c3nnn(CC(C)=O)n3)cc2)cc1 please.
Solution: 76.9

Problem: Same question for Cc1csc(NC(=O)CCS(=O)(=O)c2ccc(Br)cc2)n1 please.
Solution: 73

Problem: Same question for CC(CN1CCOCC1)(NS(=O)(=O)c1ccccc1)c1ccccc1 (centres undefined) please.
Solution: 95.9

Problem: Same question for CCOc1ccccc1N(CC(=O)N1CCOCC1)S(=O)(=O)c1ccccc1 please.
Solution: 99

Problem: Same question for CC1(C)NC(=O)N(CCOc2cccc(Cl)c2Cl)C1=O please.
Solution: 102

Problem: Same question for O=C(O)CCc1ccc(-c2cccs2)n1NC(=O)c1ccco1 please.
Solution: 96.8

Problem: Same question for Cc1cc(C(=O)CSc2nc3ccccc3n2CCC#N)c(C)n1Cc1cccs1 please.
Solution: 31.7

###

Recorded inhibition for the following compounds
assay: 384-well plate pilot, post-Golgi transport modulator project, inhibition of yeast transport mutant growth (AID 636); conditions: absorbance 615 nm, about 18 h, stronger effect = higher value
Output spec: scalar in %, unitless text.

Example entries and their recorded answers appear below.
Clc1ccc(OCc2nnc(SCCN3CCCCC3)n2Cc2ccco2)cc1 = -7.33
CCc1ccc2[nH]c(=O)c(C(c3nnnn3CC3CCCO3)N3CCCc4ccccc43)cc2c1 (stereo not given) = -7.2
O=C(CCN1C(=O)c2ccccc2C1=O)N1CCN(C(=O)c2ccccc2)CC1 = -3.25
CCOC(=O)NC(c1ccccc1)C1CCCCC1=O (stereo not given) = -3.64
NC(=O)C1CCN(c2nc(-c3ccccc3)nc3ccccc23)CC1 = -3.15

Problem: Need inhibition, item C[C@H](CCC(=O)O)[C@H]1CC[C@H]2[C@@H]3C(=O)C[C@@H]4CC(=O)CC[C@]4(C)[C@H]3CC(=O)[C@]12C
Solution: 0.65

Problem: Same question for N#Cc1ccc(CSc2nnc(-c3cccs3)n2-c2ccccc2)cc1 please.
Solution: -0.82

Problem: Same question for O=C(Nc1cccc2ccccc12)N1CCN(c2ccccc2)CC1 please.
Solution: -0.91

Problem: Same question for Cc1cc(NS(=O)(=O)Cc2ccccc2)cc(C)c1OCC(=O)N1CCOCC1 please.
Solution: -0.52

Problem: Same question for CCOC(=O)c1cnn(-c2sc(C(=O)OCC)c(C)c2C(=O)OCC)c1N please.
Solution: 0.27
